Values from patent US4410516A

Listing of entries alongside the reported MIC.
- System: Pseudomonas aeruginosa K-Ps102
- Procedure summary: Minimum inhibitory concentration, serial dilution on nutrient agar
- Assay type: cell-based
- Experimental conditions: KPS102, 18 h
The reply should consist of the numeric value with the unit placed after it.

Look at this molecule and give its reported MIC. C[C@H]1O[C@H](O[C@@H]2C[C@H](O[C@H]3O[C@H](CN)CC[C@H]3N)[C@@H](N)C[C@H]2N)[C@H](O)[C@@H](N)[C@@H]1O [TetradeoxyKMB, 5,3',4',6"-tetradeoxykanamycin B]
12.5 µg/mL

Look at this molecule and give its reported MIC. CNC[C@@H]1CC[C@@H](N)[C@@H](O[C@H]2C[C@@H](O[C@H]3O[C@H](CO)[C@@H](O)[C@H](N)[C@H]3O)[C@H](NC(=O)[C@@H](O)CCN)C[C@@H]2N)O1 [AHB-trideoxyMKMB]
1.56 µg/mL

Look at this molecule and give its reported MIC. C[C@H]1O[C@H](O[C@@H]2C[C@H](O[C@H]3O[C@H](CN)CC[C@H]3N)[C@@H](N)C[C@H]2NC(=O)[C@@H](O)CCN)[C@H](O)[C@@H](N)[C@@H]1O [AHB-tetradeoxyKMB]
3.13 µg/mL

Look at this molecule and give its reported MIC. CNC[C@@H]1CC[C@@H](N)[C@@H](O[C@H]2C[C@@H](O[C@H]3O[C@H](CO)[C@@H](O)[C@H](N)[C@H]3O)[C@H](NC(=O)C(O)CN)C[C@@H]2N)O1 (some centres unmarked) [AHP-trideoxyMKMB]
3.13 µg/mL

// next item, MIC requested
Look at this molecule and give its reported MIC. CNC[C@@H]1CC[C@@H](N)[C@@H](O[C@H]2C[C@@H](O[C@H]3O[C@H](CO)[C@@H](O)[C@H](N)[C@H]3O)[C@H](NC(=O)[C@@H](O)CCCN)C[C@@H]2N)O1 [AHV-trideoxyMKMB]
1.56 µg/mL

====

- Tested on: Pseudomonas aeruginosa TI-13
- Procedure summary: Minimum inhibitory concentration, serial dilution on nutrient agar
- Type: cell-based
- Experimental conditions: TI13, 18 h
Quantity: MIC (µg/mL)
Answer format: numeric, µg/mL implied, no suffix.

Illustrative cases are given below, each with its answer.
Look at this compound and give its reported MIC. CNC[C@@H]1CC[C@@H](N)[C@@H](O[C@H]2C[C@@H](O[C@H]3O[C@H](CO)[C@@H](O)[C@H](N)[C@H]3O)[C@H](NC(=O)C(O)CN)C[C@@H]2N)O1 (stereo partly drawn)
3.13

Look at this compound and give its reported MIC. C[C@H]1O[C@H](O[C@@H]2C[C@H](O[C@H]3O[C@H](CN)CC[C@H]3N)[C@@H](N)C[C@H]2N)[C@H](O)[C@@H](N)[C@@H]1O
12.5

Next:
Look at this compound and give its reported MIC. C[C@H]1O[C@H](O[C@@H]2C[C@H](O[C@H]3O[C@H](CN)CC[C@H]3N)[C@@H](N)C[C@H]2NC(=O)[C@@H](O)CCN)[C@H](O)[C@@H](N)[C@@H]1O
3.13

====

- System: Bacillus anthracis
- Procedure summary: microbe, parasite or virus in culture
- Assay type: cell-based
- Experimental conditions: 18 h
Listing of entries alongside the reported MIC.

Illustrative cases are given below, each with its answer.
Look at this molecule and give its reported MIC. CNC[C@@H]1CC[C@@H](N)[C@@H](O[C@H]2C[C@@H](O[C@H]3O[C@H](CO)[C@@H](O)[C@H](N)[C@H]3O)[C@H](NC(=O)[C@@H](O)CCCN)C[C@@H]2N)O1 [AHV-trideoxyMKMB]
< 0.2 µg/mL

Look at this molecule and give its reported MIC. NCC[C@H](O)C(=O)N[C@@H]1C[C@H](N)[C@@H](O[C@H]2O[C@H](CN)CC[C@H]2N)[C@H](O)[C@H]1O[C@H]1O[C@H](CO)[C@@H](O)[C@H](N)[C@H]1O [Habekacin, reference compound]
< 0.2 µg/mL

Look at this molecule and give its reported MIC. C[C@H]1O[C@H](O[C@@H]2C[C@H](O[C@H]3O[C@H](CN)CC[C@H]3N)[C@@H](N)C[C@H]2NC(=O)[C@@H](O)CCN)[C@H](O)[C@@H](N)[C@@H]1O [AHB-tetradeoxyKMB]
< 0.2 µg/mL

// next item, MIC requested
Look at this molecule and give its reported MIC. NCC(O)C(=O)N[C@@H]1C[C@H](N)[C@@H](O[C@H]2O[C@H](CN)CC[C@H]2N)C[C@H]1O[C@H]1O[C@H](CO)[C@@H](O)[C@H](N)[C@H]1O (stereo partly shown) [AHP-trideoxyKMB]
< 0.2 µg/mL

====

Listing of entries alongside the reported MIC.
- Test system: Proteus vulgaris OX19
Answer format: numeric, µg/mL implied, no suffix.

Request - read-out MIC | tested on Proteus vulgaris OX19 | compound C[C@H]1O[C@H](O[C@@H]2C[C@H](O[C@H]3O[C@H](CN)CC[C@H]3N)[C@@H](N)C[C@H]2N)[C@H](O)[C@@H](N)[C@@H]1O [TetradeoxyKMB, 5,3',4',6"-tetradeoxykanamycin B]
1.56

Request - read-out MIC | tested on Proteus vulgaris OX19 | compound NCC(O)C(=O)N[C@@H]1C[C@H](N)[C@@H](O[C@H]2O[C@H](CN)CC[C@H]2N)C[C@H]1O[C@H]1O[C@H](CO)[C@@H](O)[C@H](N)[C@H]1O (stereo partly shown) [AHP-trideoxyKMB]
0.78

Request - read-out MIC | tested on Proteus vulgaris OX19 | compound NCC[C@H](O)C(=O)N[C@@H]1C[C@H](N)[C@@H](O[C@H]2O[C@H](CN)CC[C@H]2N)[C@H](O)[C@H]1O[C@H]1O[C@H](CO)[C@@H](O)[C@H](N)[C@H]1O [Habekacin, reference compound]
0.78

Next:
Request - read-out MIC | tested on Proteus vulgaris OX19 | compound CNC[C@@H]1CC[C@@H](N)[C@@H](O[C@H]2C[C@@H](O[C@H]3O[C@H](CO)[C@@H](O)[C@H](N)[C@H]3O)[C@H](NC(=O)C(O)CN)C[C@@H]2N)O1 (stereo partly shown) [AHP-trideoxyMKMB]
0.78

====

Listing of entries alongside the reported MIC.
- Test system: Escherichia coli JR66/W677
- Procedure summary: Minimum inhibitory concentration, serial dilution on nutrient agar
- Type: cell-based
- Experimental conditions: JR66/W677, nutrient agar, 37° C., 18 hours incubation, read-out: MIC
Answer format: numeric, µg/mL implied, no suffix.

Request - read-out MIC | tested on Escherichia coli JR66/W677 | molecule CNC[C@@H]1CC[C@@H](N)[C@@H](O[C@H]2C[C@@H](O[C@H]3O[C@H](CO)[C@@H](O)[C@H](N)[C@H]3O)[C@H](N)C[C@@H]2N)O1
100

Request - read-out MIC | tested on Escherichia coli JR66/W677 | molecule NCC(O)C(=O)N[C@@H]1C[C@H](N)[C@@H](O[C@H]2O[C@H](CN)CC[C@H]2N)C[C@H]1O[C@H]1O[C@H](CO)[C@@H](O)[C@H](N)[C@H]1O (stereo partly shown)
3.13

// next item, MIC requested
Request - read-out MIC | tested on Escherichia coli JR66/W677 | molecule NCC[C@H](O)C(=O)N[C@@H]1C[C@H](N)[C@@H](O[C@H]2O[C@H](CN)CC[C@H]2N)C[C@H]1O[C@H]1O[C@H](CO)[C@@H](O)[C@H](N)[C@H]1O
1.56

====

- Test system: Bacillus anthracis
- Procedure summary: microbe, parasite or virus in culture
- Type: cell-based
- Experimental conditions: 18 h
Listing of entries alongside the reported MIC.
Answer format: numeric, µg/mL implied, no suffix.

Request - read-out MIC | tested on Bacillus anthracis | compound C[C@H]1O[C@H](O[C@@H]2C[C@H](O[C@H]3O[C@H](CN)CC[C@H]3N)[C@@H](N)C[C@H]2N)[C@H](O)[C@@H](N)[C@@H]1O [TetradeoxyKMB, 5,3',4',6"-tetradeoxykanamycin B]
0.39

// next item, MIC requested
Request - read-out MIC | tested on Bacillus anthracis | compound CNC[C@@H]1CC[C@@H](N)[C@@H](O[C@H]2C[C@@H](O[C@H]3O[C@H](CO)[C@@H](O)[C@H](N)[C@H]3O)[C@H](N)C[C@@H]2N)O1 [TrideoxyMKMB, 5,3',4'-trideoxy-6'-N-methylkanamycin B]
0.78

====

- Test system: Pseudomonas aeruginosa GN315
- Procedure summary: Minimum inhibitory concentration, serial dilution on nutrient agar
- Assay type: cell-based
- Experimental conditions: GN315, nutrient agar, 37° C., 18 hours incubation, read-out: MIC
Listing of entries alongside the reported MIC.
Answer format: numeric, µg/mL implied, no suffix.

Illustrative cases are given below, each with its answer.
Look at this molecule and give its reported MIC. NCC(O)C(=O)N[C@@H]1C[C@H](N)[C@@H](O[C@H]2O[C@H](CN)CC[C@H]2N)C[C@H]1O[C@H]1O[C@H](CO)[C@@H](O)[C@H](N)[C@H]1O (some centres unmarked)
50

Look at this molecule and give its reported MIC. CNC[C@@H]1CC[C@@H](N)[C@@H](O[C@H]2C[C@@H](O[C@H]3O[C@H](CO)[C@@H](O)[C@H](N)[C@H]3O)[C@H](N)C[C@@H]2N)O1
25

Look at this molecule and give its reported MIC. NCC[C@H](O)C(=O)N[C@@H]1C[C@H](N)[C@@H](O[C@H]2O[C@H](CN)CC[C@H]2N)C[C@H]1O[C@H]1O[C@H](CO)[C@@H](O)[C@H](N)[C@H]1O
25

Next:
Look at this molecule and give its reported MIC. C[C@H]1O[C@H](O[C@@H]2C[C@H](O[C@H]3O[C@H](CN)CC[C@H]3N)[C@@H](N)C[C@H]2NC(=O)[C@@H](O)CCN)[C@H](O)[C@@H](N)[C@@H]1O
100
